B1: TPR t1 (parent)
chain: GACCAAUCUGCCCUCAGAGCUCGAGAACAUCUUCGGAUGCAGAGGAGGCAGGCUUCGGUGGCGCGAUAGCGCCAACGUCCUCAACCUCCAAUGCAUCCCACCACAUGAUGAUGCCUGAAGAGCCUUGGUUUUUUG

- Variants of: B1
- Method summary: polymerase ribozyme fitness, log enrichment relative to wild type (log ratio); higher = more active; in vitro selection for triplet polymerase activity
Value kind: polymerase ribozyme fitness (log ratio)
One number for each entry.

variant_notation="G10C G69A" reported=-4.78
variant_notation="A29G U87A" reported=-1.67
variant_notation="U7C C11A G45C G58A" reported=-0.0271
variant_notation=U133C reported=0.332

Provide the reported polymerase ribozyme fitness (log ratio) of each entry below, same order.
1. C8A C28G U96A
2. C13A G77U U106A C114A
3. A41C G52U C72G U96A

1: -3.08; 2: -4.55; 3: -4.71
